Hey, just so you know, these numbers are from PubChem BioAssay (NCI).

Test system: OVCAR-3 ovarian
Assay: NCI-60 one-dose screen, 48 h (100 = growth as untreated, 0 = no growth, -100 = all killed)
Details: 10 µM unless noted
About 83,000 compounds went through this panel and 20% of them were active in at least one assay; those are over-represented in the sample as a whole.
// classify: if (growth < 80%) Y else N

[
  {
    "line-notation": "C/C(=N\\Nc1nc(C)cs1)c1cc2ccccc2o1",
    "group": "N"
  },
  {
    "line-notation": "O=c1[nH]c(-c2ccc(Cl)cc2)cn1-c1ccc(-n2cc(-c3ccc(Cl)cc3)[nH]c2=O)cc1",
    "group": "N"
  },
  {
    "line-notation": "CCn1c2ccc(O)cc2c2c(C)c3c[n+](C(C)C)ccc3c(C)c21",
    "group": "Y"
  },
  {
    "line-notation": "COc1cc(C(=O)c2c(-c3ccccc3)oc3c(OC)cccc23)cc(OC)c1O",
    "group": "Y"
  },
  {
    "line-notation": "CCc1ccc(CCC(=O)Nc2ncc(Cc3ccc(Cl)cc3)s2)o1",
    "group": "Y"
  }
]

----------
System: UACC-62 melanoma
Assay: NCI-60 one-dose screen, 48 h (100 = growth as untreated, 0 = no growth, -100 = all killed)
Details: 10 µM unless noted
Compounds without any hit were thinned out: in the full panel of roughly 83,000, 20% have a hit. The source made the active and inactive calls. The calls were made as follows: active = growth percent below 10; inactive = the rest.

[
  {
    "molecule": "COc1cc(/C=N/Nc2ccccc2F)cc(OC)c1OC",
    "growth": "65.7% (inactive)"
  },
  {
    "molecule": "COc1cccc(C(=O)OCC(O)C(=O)NC23CC4CC(CC(C4)C2)C3)c1 (centres undefined)",
    "growth": "93.4% (inactive)"
  },
  {
    "molecule": "COc1cc(-c2nc(NC(C)=O)sc2-c2ccnc(NCCNS(=O)(=O)c3ccccc3)n2)ccc1Cl",
    "growth": "23% (inactive)"
  },
  {
    "molecule": "Oc1c(Cl)cc(Cl)c2ccc(Cn3cc(-c4cccc(C(F)(F)F)c4)nn3)nc12",
    "growth": "82.1% (inactive)"
  },
  {
    "molecule": "N#Cc1c(-c2ccccc2)cc(-c2ccccc2)n(CCCC(=O)NO)c1=O",
    "growth": "9.37% (active)"
  },
  {
    "molecule": "O=C1Nc2ccc(F)cc2/C1=C\\c1nc(-c2ccccc2F)n2ccccc12",
    "growth": "94.6% (inactive)"
  },
  {
    "molecule": "COc1cc(C2C3=C(COC3=O)N(CCO)c3cc4c(cc32)OCCO4)cc(OC)c1OC (centres undefined)",
    "growth": "6.33% (active)"
  },
  {
    "molecule": "Cc1ccc(-c2csc(NC(=O)N3CCN(c4cc5c(cc4F)c(=O)c(C(=O)O)cn5C4CC4)CC3)n2)cc1",
    "growth": "3.86% (active)"
  },
  {
    "molecule": "Cn1c(/C=C/[N+](=O)[O-])cc2ccccc21",
    "growth": "42.2% (inactive)"
  },
  {
    "molecule": "CCOC(=O)c1c(C)c2c(n1C)CSc1cc(S(=O)(=O)c3ccccc3)c(=O)[nH]c1-2",
    "growth": "1.08% [100 µM] (active)"
  },
  {
    "molecule": "NC(=O)c1c(NC(=O)c2ccc(Cl)cc2)sc2c1CCC(=O)C2",
    "growth": "61.9% (inactive)"
  },
  {
    "molecule": "C[C@@H]1O[C@@H](O[C@@H]2C[C@H](c3ccc4c(c3O)C(=O)C3=C(C4=O)[C@@]4(O)C(=O)C[C@](C)(O)C[C@@]4(O)C=C3)O[C@H](C)[C@H]2O)C[C@H](O)[C@@H]1O",
    "growth": "94.2% (inactive)"
  },
  {
    "molecule": "O[C@@H](c1cc(C(F)(F)F)nc2c(C(F)(F)F)cccc12)[C@H]1CCCCN1",
    "growth": "56.2% (inactive)"
  },
  {
    "molecule": "CCOC(=O)c1c2c(n3ccccc13)C(=O)c1ncccc1C2=O",
    "growth": "-25.8% (active)"
  },
  {
    "molecule": "COc1cc2c(cc1O)[C@@]1(C)[C@H](c3ccccc3Br)OC(=O)N1CC2",
    "growth": "72.1% (inactive)"
  },
  {
    "molecule": "CC(C)CSc1oc(-c2ccccc2)nc1S(=O)(=O)c1ccccc1",
    "growth": "66.9% (inactive)"
  },
  {
    "molecule": "CCCCn1sc(=O)n(Cc2ccc(CNC(=O)OCc3ccc4c(Cl)cc(Cl)c(O)c4n3)cc2)c1=O",
    "growth": "47.9% (inactive)"
  },
  {
    "molecule": "Cn1c(=O)c2c(nc(NC3=NS(=O)(=O)c4ccccc43)n2Cc2ccccc2)n(C)c1=O",
    "growth": "91.5% (inactive)"
  },
  {
    "molecule": "Cn1c(=O)c2c(c3ccccc31)OC(N)=C(C#N)C21C(=O)c2ccccc2C1=O",
    "growth": "89.8% (inactive)"
  },
  {
    "molecule": "CCN(CCO)CC(C)Nc1ccc([N+](=O)[O-])c2sc3ccccc3c(=O)c12 (centres undefined)",
    "growth": "29.8% (inactive)"
  },
  {
    "molecule": "O=C(NCc1ccccc1O)c1cccc2ccccc12",
    "growth": "37.9% (inactive)"
  },
  {
    "molecule": "Cc1ccccc1CNc1c2ccccc2nc2ccccc12",
    "growth": "46.7% (inactive)"
  },
  {
    "molecule": "COc1cc(/C=C2\\C(=O)N(c3c(Cl)cccc3Cl)c3ccccc32)cc(OC)c1OCCCCCCn1c2ccccc2c(=O)c2ccccc21",
    "growth": "93.3% (inactive)"
  },
  {
    "molecule": "COCCCOc1cc(C[C@@H](C[C@H](N)[C@@H](O)C[C@H](C(=O)NCC(C)(C)C(N)=O)C(C)C)C(C)C)ccc1OC",
    "growth": "102% (inactive)"
  },
  {
    "molecule": "O=C(/C=C/C12c3ccccc3C(c3ccccc31)C1C(=O)NC(=O)C12)c1ccc(F)cc1 (centres undefined)",
    "growth": "-55.6% (active)"
  },
  {
    "molecule": "CN1CCN(C(=O)c2cc(-c3ccc4ncnc(N5CCc6cc(F)c(Cl)cc65)c4c3)cnc2N)CC1",
    "growth": "-52.1% (active)"
  },
  {
    "molecule": "CC(C)CN1CC(C(=O)Nc2ccc3c(c2)-c2ccccc2C3)CC1=O (centres undefined)",
    "growth": "47.3% [50 µM] (inactive)"
  },
  {
    "molecule": "COC1=CC(c2ccc[nH]2)=N/C1=C\\c1[nH]c(C)c(CC(=O)OCc2ccccc2)c1C",
    "growth": "-31.7% (active)"
  },
  {
    "molecule": "S=c1ssnc1-c1cccs1",
    "growth": "90.7% (inactive)"
  },
  {
    "molecule": "CCCCCCC(CCCC)COC(=O)c1ccc(Cl)cc1 (centres undefined)",
    "growth": "98.7% (inactive)"
  },
  {
    "molecule": "CN1CCN(c2ccc(NC(=O)c3cncnc3Nc3ccc4c(ccn4Cc4cccc(F)c4)c3)cc2)CC1",
    "growth": "54.3% (inactive)"
  },
  {
    "molecule": "CCOC(=O)n1cc(-c2nonc2-c2cn(C)c3ccccc23)c2ccccc21",
    "growth": "30.6% (inactive)"
  },
  {
    "molecule": "O=[N+]([O-])/C(=C\\c1ccco1)c1ccccc1Cl",
    "growth": "33.8% (inactive)"
  },
  {
    "molecule": "CCCCCCCCCCCCCCCCOC(=O)c1c(C)[nH]c(/C=C2\\N=C(c3ccc[nH]3)C=C2OC)c1C",
    "growth": "-15.3% (active)"
  },
  {
    "molecule": "CCCCCCCCCCCCCCCCCCOc1ccccc1CC(=O)OCC[N+]1(C)CCOCC1",
    "growth": "60.8% (inactive)"
  },
  {
    "molecule": "N=C(N)SCc1cccc2c(CSC(=N)N)cccc12",
    "growth": "96.6% (inactive)"
  },
  {
    "molecule": "Cc1cccc(-n2c(C)nc3ccc(N4CCCNC4=O)cc3c2=O)c1",
    "growth": "97.3% (inactive)"
  },
  {
    "molecule": "Cc1nc2sc(C(=O)Nc3cccc(Cl)c3)c(N)c2cc1C(O)c1ccccc1 (centres undefined)",
    "growth": "31.5% (inactive)"
  },
  {
    "molecule": "CCCCCCNc1nc(NCCCCCC)c2[nH]c(NCCCCCC)nc2n1",
    "growth": "81.2% (inactive)"
  }
]
